Please respond with reported EC50 for every item in the list.
- subjectOfTest: glucokinase (GK), human enzyme (Homo sapiens, UniProt P35557)
- Sequence (P35557 1-465): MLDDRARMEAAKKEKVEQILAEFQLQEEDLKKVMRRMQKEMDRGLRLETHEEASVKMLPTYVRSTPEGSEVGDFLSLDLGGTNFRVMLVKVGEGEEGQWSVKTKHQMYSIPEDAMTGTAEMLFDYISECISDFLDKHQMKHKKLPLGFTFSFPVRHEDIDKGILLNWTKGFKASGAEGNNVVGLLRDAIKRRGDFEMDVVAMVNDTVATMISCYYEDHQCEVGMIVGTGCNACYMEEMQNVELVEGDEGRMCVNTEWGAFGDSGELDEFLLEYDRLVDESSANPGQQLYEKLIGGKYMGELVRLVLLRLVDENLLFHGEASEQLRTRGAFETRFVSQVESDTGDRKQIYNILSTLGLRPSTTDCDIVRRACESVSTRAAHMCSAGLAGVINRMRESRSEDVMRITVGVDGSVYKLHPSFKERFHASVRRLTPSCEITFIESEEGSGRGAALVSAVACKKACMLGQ
- experimentNotes: Glucokinase Activation Assay (coupled enzyme assay with PK/LDH, NADH decline at 340 nm)
- conditionsUsed: 2 mM glucose, half maximal effective concentration of activation

Record excerpt, results attached:
{"compound": "COc1cccc(C(CC(=O)Nc2ccc(Cl)cn2)N2Cc3ccccc3C2=O)c1OC (stereo not drawn)", "EC50": "> 10 µM"}
{"compound": "CCOc1ccc(C(CC(=O)Nc2ccc(Cl)cn2)N2Cc3ccccc3C2=O)cc1OC (single isomer, unassigned; (-)) [C5]", "EC50": "> 10 µM"}
{"compound": "COc1cc(C(CC(=O)Nc2ccc(Cl)cn2)N2Cc3ccccc3C2=O)cc(OC)c1OC (single isomer, unassigned; (+)) [C1]", "EC50": "1 to 10 µM"}
{"compound": "COc1ccc(C(CC(=O)Nc2ccc(Br)cn2)N2Cc3ccccc3C2=O)cc1OC (stereo not drawn)", "EC50": "> 10 µM"}
{"compound": "COc1cc(C(CC(=O)Nc2ccc(C)cn2)N2Cc3ccccc3C2=O)cc(OC)c1OC (stereo not drawn)", "EC50": "1 to 10 µM"}
{"compound": "CCOc1ccc(C(CC(=O)Nc2ccc(Cl)cn2)N2Cc3ccccc3C2=O)cc1OC (stereo not drawn) [C23]", "EC50": "> 10 µM"}

Hi, could you look up EC50 for each item in my list?
1. CCOc1ccc(C(CC(=O)Nc2ccc(Cl)cn2)N2Cc3ccccc3C2=O)cc1OC (single isomer, unassigned; (+)) [C4]
2. COc1ccc(C(CC(=O)Nc2ccc(Cl)cn2)N2Cc3ccccc3C2=O)cc1OC (stereo not drawn)
3. COc1cc(C(CC(=O)Nc2ccc(Cl)cn2)N2Cc3ccccc3C2=O)cc(OC)c1OC (stereo not drawn) [B2]

Result:
["> 10 µM", "> 10 µM", "1 to 10 µM"]
